pKi: −log10 of the molar value.
The next entries give measured pKi for Cholinesterase (Homo sapiens, UniProt P06276).
measurement.name: pKi

>  <compound>
CC(=O)Nc1nc(NCc2ccccc2)c2ncn(C3O[C@H](CC(=O)NCc4ccccc4)[C@H](OC(C)=O)[C@H]3OC(C)=O)c2n1 (stereo partly drawn)

>  <assay.target>
Cholinesterase (Homo sapiens, UniProt P06276)
Sequence (P06276 whole entry): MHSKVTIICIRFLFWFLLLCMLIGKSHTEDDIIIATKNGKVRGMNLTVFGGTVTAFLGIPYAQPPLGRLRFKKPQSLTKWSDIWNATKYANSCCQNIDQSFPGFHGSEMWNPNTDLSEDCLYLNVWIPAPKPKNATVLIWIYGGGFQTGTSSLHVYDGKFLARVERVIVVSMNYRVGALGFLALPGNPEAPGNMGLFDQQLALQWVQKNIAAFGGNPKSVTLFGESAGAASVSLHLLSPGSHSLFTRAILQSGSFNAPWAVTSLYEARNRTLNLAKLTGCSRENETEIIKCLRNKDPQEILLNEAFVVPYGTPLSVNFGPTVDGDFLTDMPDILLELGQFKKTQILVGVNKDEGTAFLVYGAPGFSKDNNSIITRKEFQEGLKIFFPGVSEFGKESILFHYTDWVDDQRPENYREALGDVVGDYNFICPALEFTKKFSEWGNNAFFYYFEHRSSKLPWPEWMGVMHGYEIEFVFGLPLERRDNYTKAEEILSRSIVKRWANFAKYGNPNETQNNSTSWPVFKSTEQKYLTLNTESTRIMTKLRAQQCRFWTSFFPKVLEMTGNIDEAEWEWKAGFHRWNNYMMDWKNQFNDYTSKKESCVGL

>  <assay.result>
< 4.00

$$$$
>  <compound>
CC(=O)Nc1nc(Cl)c2c(ncn2C2O[C@H](C(=O)NCc3ccccc3)[C@@H](OC(C)=O)[C@@H](OC(C)=O)[C@H]2OC(C)=O)n1 (stereo partly drawn)

>  <assay.target>
Cholinesterase (Homo sapiens, UniProt P06276)

>  <assay.result>
< 4.00

$$$$
>  <compound>
CC(=O)Nc1nc(Cl)c2ncn(C3O[C@H]4[C@H](OC(=O)[C@@H]4O)[C@H]3OC(C)=O)c2n1 (stereo partly drawn)

>  <assay.target>
Cholinesterase (Homo sapiens, UniProt P06276)

>  <assay.result>
< 4.00

$$$$
>  <compound>
CC(=O)Nc1nc(Cl)c2ncn(C3O[C@H](CC(=O)NCc4ccccc4)[C@H](OC(C)=O)[C@H]3OC(C)=O)c2n1 (stereo partly drawn)

>  <assay.target>
Cholinesterase (Homo sapiens, UniProt P06276)

>  <assay.result>
< 4.00

$$$$
>  <compound>
CC(=O)Nc1nc(Cl)c2c(ncn2C2O[C@H](C(=O)O)[C@@H](OC(C)=O)[C@@H](OC(C)=O)[C@H]2OC(C)=O)n1 (stereo partly drawn)

>  <assay.target>
Cholinesterase (Homo sapiens, UniProt P06276)

>  <assay.result>
< 4.00

$$$$
>  <compound>
CC(=O)Nc1nc(Cl)c2c(ncn2[C@H]2O[C@H](COCc3ccccc3)[C@@H](OCc3ccccc3)[C@H](OCc3ccccc3)[C@@H]2OCc2ccccc2)n1

>  <assay.target>
Cholinesterase (Homo sapiens, UniProt P06276)

>  <assay.result>
7.30

$$$$
>  <compound>
CC(=O)Nc1nc(Cl)c2ncn(C3O[C@H](C(=O)O)[C@@H](OC(C)=O)[C@@H](OC(C)=O)[C@H]3OC(C)=O)c2n1 (stereo partly drawn)

>  <assay.target>
Cholinesterase (Homo sapiens, UniProt P06276)

>  <assay.result>
< 4.00

$$$$
>  <compound>
CC(=O)Nc1nc(Cl)c2ncn(C3O[C@H](C(=O)NCc4ccccc4)[C@@H](OC(C)=O)[C@@H](OC(C)=O)[C@H]3OC(C)=O)c2n1 (stereo partly drawn)

>  <assay.target>
Cholinesterase (Homo sapiens, UniProt P06276)

>  <assay.result>
< 4.00

$$$$

---

pKi: −log10 of the molar value.
Observed pKi for UniProt O42275, reported per entry below.
Sequence (O42275 whole entry): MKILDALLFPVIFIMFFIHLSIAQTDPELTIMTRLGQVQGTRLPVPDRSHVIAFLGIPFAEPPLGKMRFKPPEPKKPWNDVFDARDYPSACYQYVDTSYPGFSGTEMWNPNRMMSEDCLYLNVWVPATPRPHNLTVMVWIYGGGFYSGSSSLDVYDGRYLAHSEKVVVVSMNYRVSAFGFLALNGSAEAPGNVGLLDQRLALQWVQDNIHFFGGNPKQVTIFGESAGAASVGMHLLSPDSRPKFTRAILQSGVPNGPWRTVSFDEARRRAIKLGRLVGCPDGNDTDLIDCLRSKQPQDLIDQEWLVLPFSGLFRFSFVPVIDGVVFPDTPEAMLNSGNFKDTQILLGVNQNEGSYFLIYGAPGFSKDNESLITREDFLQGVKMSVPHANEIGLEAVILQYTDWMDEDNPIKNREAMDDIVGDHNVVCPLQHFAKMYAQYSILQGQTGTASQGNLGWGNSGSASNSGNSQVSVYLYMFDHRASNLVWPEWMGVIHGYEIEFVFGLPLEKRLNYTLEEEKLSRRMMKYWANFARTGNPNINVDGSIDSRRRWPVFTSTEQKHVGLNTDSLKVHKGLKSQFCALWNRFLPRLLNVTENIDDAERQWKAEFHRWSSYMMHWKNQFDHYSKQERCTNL

>  <compound>
CO[C@H]1O[C@H](Cn2c(=O)c3c(ncn3C)n(C)c2=O)[C@@H](OC(C)=O)[C@H](OC(C)=O)[C@H]1OC(C)=O

>  <lt.gt.eq>
=

>  <pKi>
5.37

$$$$
>  <compound>
CCCCCCCCCCCCNC(=O)[C@@H](OCc1ccccc1)[C@H]1O[C@@H](n2cc(-c3ccccc3)nn2)[C@H](OC(C)=O)[C@H]1OCc1ccccc1

>  <lt.gt.eq>
=

>  <pKi>
5.45

$$$$
>  <compound>
COC1O[C@H](Cn2ccc(=O)n(C[C@H]3O[C@H](OC)[C@H](OCc4ccccc4)[C@@H](OCc4ccccc4)[C@@H]3OCc3ccccc3)c2=O)[C@@H](OCc2ccccc2)[C@H](OCc2ccccc2)[C@H]1OCc1ccccc1 (some centres undefined)

>  <lt.gt.eq>
=

>  <pKi>
5.38

$$$$
>  <compound>
CC(=O)O[C@H]1C(NS(C)(=O)=O)O[C@H](Cn2c(=O)c3c(ncn3C)n(C)c2=O)[C@@H]1OCc1ccccc1 (some centres undefined)

>  <lt.gt.eq>
=

>  <pKi>
5.18

$$$$
>  <compound>
CCCCCCCCCCCCNC(=O)[C@@H](OCc1ccccc1)[C@H]1OC(OC(C)=O)[C@H](OC(C)=O)[C@H]1OC(C)=O (some centres undefined)

>  <lt.gt.eq>
<

>  <pKi>
4.00

$$$$
>  <compound>
CCCCCCCCCCCCNC(=O)[C@@H](OCc1ccccc1)[C@H]1OC(n2cc(-c3ccccc3)nn2)[C@H](OC(C)=O)[C@H]1OC(C)=O (some centres undefined)

>  <lt.gt.eq>
=

>  <pKi>
5.02

$$$$
>  <compound>
Cn1cnc2c1c(=O)n(C[C@H]1O[C@@H]3OC(C)(C)O[C@@H]3[C@H]1OCc1ccccc1)c(=O)n2C

>  <lt.gt.eq>
<

>  <pKi>
4.00

$$$$
>  <compound>
CCCCCCCCCCCCNC(=O)[C@@H](OCc1ccccc1)[C@H]1O[C@H](n2cc(-c3ccccc3)nn2)[C@H](OC(C)=O)[C@H]1OCc1ccccc1

>  <lt.gt.eq>
=

>  <pKi>
5.01

$$$$
>  <compound>
CCCCCCCCCCCCNC(=O)[C@@H](OCc1ccccc1)[C@H]1O[C@@H](N=[N+]=[N-])[C@H](OC(C)=O)[C@H]1OCc1ccccc1

>  <lt.gt.eq>
=

>  <pKi>
5.76

$$$$
>  <compound>
CCCCCCCCCCCCNC(=O)[C@@H](OCc1ccccc1)[C@H]1OC(OC(C)=O)[C@H](OC(C)=O)[C@H]1OCc1ccccc1 (some centres undefined)

>  <lt.gt.eq>
<

>  <pKi>
4.00

$$$$
>  <compound>
CCCCCCCCCCCCNC(=O)[C@@H](OCc1ccccc1)[C@H]1OC(N=[N+]=[N-])[C@H](OC(C)=O)[C@H]1OC(C)=O (some centres undefined)

>  <lt.gt.eq>
<

>  <pKi>
4.00

$$$$
>  <compound>
CCCCCCCCCCCCNC(=O)[C@@H](OCc1ccccc1)[C@H]1O[C@H](N=[N+]=[N-])[C@H](OC(C)=O)[C@H]1OCc1ccccc1

>  <lt.gt.eq>
<

>  <pKi>
4.00

$$$$
>  <compound>
COC1O[C@H](Cn2ccc(=O)n(C[C@H]3O[C@H](OC)[C@H](O)[C@@H](O)[C@@H]3O)c2=O)[C@@H](O)[C@H](O)[C@H]1O (some centres undefined)

>  <lt.gt.eq>
=

>  <pKi>
4.64

$$$$
>  <compound>
CO[C@H]1O[C@H](Cn2cnc3c(Cl)nc(NC(C)=O)nc32)[C@@H](OCc2ccccc2)[C@H](OCc2ccccc2)[C@H]1OCc1ccccc1

>  <lt.gt.eq>
=

>  <pKi>
5.15

$$$$

---

target: Cholinesterase (Equus caballus); test: Binding affinity to horse serum BuChE using ATCh-iodide as substrate by ellman's method
Sequence (P81908 whole entry): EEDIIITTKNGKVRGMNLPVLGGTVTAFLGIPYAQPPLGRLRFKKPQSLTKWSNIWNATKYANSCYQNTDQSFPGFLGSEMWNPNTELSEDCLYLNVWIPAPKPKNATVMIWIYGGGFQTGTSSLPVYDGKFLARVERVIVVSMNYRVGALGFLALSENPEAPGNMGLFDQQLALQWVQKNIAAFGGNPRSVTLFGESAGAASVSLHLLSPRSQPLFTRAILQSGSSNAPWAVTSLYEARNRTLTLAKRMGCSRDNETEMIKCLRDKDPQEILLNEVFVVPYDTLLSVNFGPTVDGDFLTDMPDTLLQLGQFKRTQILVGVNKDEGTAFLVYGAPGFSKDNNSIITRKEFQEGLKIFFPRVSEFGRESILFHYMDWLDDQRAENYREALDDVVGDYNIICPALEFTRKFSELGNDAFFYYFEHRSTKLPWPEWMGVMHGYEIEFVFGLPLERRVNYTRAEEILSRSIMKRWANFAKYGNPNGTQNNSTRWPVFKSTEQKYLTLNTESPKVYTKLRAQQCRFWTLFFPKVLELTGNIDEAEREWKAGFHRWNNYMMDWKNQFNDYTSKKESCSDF
pKi: −log10 of the molar value.

>  <cpd.smiles>
OC[C@H]1O[C@@H](OCCN2CN(Cc3ccccc3)c3ccccc32)[C@H](O)[C@@H](O)[C@@H]1O

>  <assay.target>
Cholinesterase (Equus caballus)

>  <pKi>
4.28

$$$$
>  <cpd.smiles>
OC[C@H]1O[C@@H](OCCN2CN(Cc3ccccc3)c3ccccc32)[C@H](O)[C@@H](O)[C@H]1O

>  <assay.target>
Cholinesterase (Equus caballus)

>  <pKi>
4.59

$$$$
>  <cpd.smiles>
OC[C@H]1O[C@@H](OCCn2cnc3ccccc32)[C@H](O)[C@@H](O)[C@H]1O

>  <assay.target>
Cholinesterase (Equus caballus)

>  <pKi>
3.11

$$$$

---

Reported values: Ki for Cholinesterase (Homo sapiens, UniProt P06276), one per item.

>  <compound>
CO[C@H]1O[C@H](Cn2c(=O)c3c(ncn3C)n(C)c2=O)[C@@H](OC(C)=O)[C@H](OC(C)=O)[C@H]1OC(C)=O

>  <output.unit>
µM

>  <lt.gt.eq>
=

>  <Ki>
4

$$$$
>  <compound>
CO[C@H]1O[C@H](Cn2cnc3c(Cl)nc(NC(C)=O)nc32)[C@@H](OCc2ccccc2)[C@H](OCc2ccccc2)[C@H]1OCc1ccccc1

>  <output.unit>
µM

>  <lt.gt.eq>
<

>  <Ki>
100

$$$$
>  <compound>
COC1O[C@H](Cn2ccc(=O)[nH]c2=O)[C@@H](OCc2ccccc2)[C@H](OCc2ccccc2)[C@H]1OCc1ccccc1 (stereo not given in full)

>  <output.unit>
µM

>  <lt.gt.eq>
<

>  <Ki>
100

$$$$
>  <compound>
COC1O[C@H](Cn2ccc(=O)n(C[C@H]3O[C@H](OC)[C@H](OCc4ccccc4)[C@@H](OCc4ccccc4)[C@@H]3OCc3ccccc3)c2=O)[C@@H](OCc2ccccc2)[C@H](OCc2ccccc2)[C@H]1OCc1ccccc1 (stereo not given in full)

>  <output.unit>
µM

>  <lt.gt.eq>
=

>  <Ki>
4

$$$$
>  <compound>
COC1O[C@H](Cn2ccc(=O)n(C[C@H]3O[C@H](OC)[C@H](O)[C@@H](O)[C@@H]3O)c2=O)[C@@H](O)[C@H](O)[C@H]1O (stereo not given in full)

>  <output.unit>
µM

>  <lt.gt.eq>
<

>  <Ki>
100

$$$$
